Source of measurements: PubChem BioAssay (NCI)

# System: CAKI-1 renal
# method.summary: NCI-60 one-dose screen, 48 h
# study.conditions: 10 µM unless noted
This is part of a sample that, as a whole, favours compounds with a hit. Of some 83,000 tested, about 20% had one in any assay. Activity calls are given as the source filed them. Rule for the calls: active = growth percent below 10; inactive = the rest.
Allowed answers: active, inactive

Solved cases below.
# molecule, tested.target, assigned.category
data = [
    ("CC1=C(C(=O)c2ccccc2)C(c2cccc(Cl)c2Cl)n2c(nc3ccccc32)N1 (centres undefined)", "CAKI-1 renal", "inactive"),
    ("Cn1cc(-c2cc3nc(-c4cn(C)c5ncc(Br)cc45)cc(N)n3n2)c2ccccc21", "CAKI-1 renal", "active"),
    ("COc1ccc(C(=O)/C=C/c2cccc(Cl)c2)cc1S(N)(=O)=O", "CAKI-1 renal", "active"),
    ("Cc1cnc(C(=O)NNc2nc3cc(F)ccc3n3c(C(=O)N4CC5CC(C4)N5)ccc23)cn1", "CAKI-1 renal", "inactive"),
    ("O=C(COc1ccc(NC(=O)Nc2ccccc2)cc1)N=Nc1c(O)[nH]c2ccc([N+](=O)[O-])cc12", "CAKI-1 renal", "inactive"),
]

Hi team, can someone confirm the assay call for `CCN(CC)c1ccc(/C=N/Nc2nc(-c3ccc(Br)cc3)cs2)c(O)c1` ? inactive

Hi team, can someone confirm the assay call for `COc1ccc2[nH]cc(-c3nc(N)nnc3-c3cn(C)c4ncccc34)c2c1` ? inactive

Hi team, can someone confirm the assay call for `COc1ccc(C(=O)/C=C/c2ccccc2Cl)cc1S(N)(=O)=O` ? inactive

Hi team, can someone confirm the assay call for `Cc1ccc(Cc2cnc(NC(=O)c3ccc(/C=C4\SC(=S)N(C)C4=O)cc3)s2)cc1` ? inactive

###

# Tested on: U251 CNS
# method.summary: NCI-60 one-dose screen, 48 h (100 = growth as untreated, 0 = no growth, -100 = all killed)
# study.conditions: 10 µM unless noted
Compounds without any hit were thinned out: in the full panel of roughly 83,000, 20% have a hit.
recorded.metric: growth (%)
Report the figure in % without appending any unit label.

Worked examples follow.
# compound, unit.tag, growth
records = [
    ("COc1cc2c(c(OC)c1OC)C(=O)CC(c1cccc(NC(=O)c3cc([N+](=O)[O-])ccc3Cl)c1)O2 (configuration not stated)", "%", 30.7),
    ("CC1=C(C(=O)c2ccccc2)C(c2ccc(-n3cncn3)cc2)n2c(nc3ccccc32)N1 (configuration not stated)", "%", 71.7),
    ("COc1cc2c(c(OC)c1OC)C(=O)CC(c1cccc(NC(=O)c3cc(NC(=O)[C@@H](N)CO)ccc3C)c1)O2 (some centres not stated)", "%", 112),
    ("O=C(/C=C/c1ccc(-c2ccccc2)cc1)c1nc2ccccc2n1Cc1ccc(F)cc1", "%", 32.5),
    ("Cc1ncsc1-c1ccc(CNC(=O)[C@@H]2C[C@@H](O)CN2C(=O)[C@@H](NC(=O)C2(F)CC2)C(C)(C)C)c(OCCOCCOCCOCCOc2nc(Nc3cc(S(C)(=O)=O)ccc3N[C@@H](c3cccc4c3OC(F)(F)O4)c3ncccc3Cl)nc(N3CCNCC3)n2)c1", "%", 65.8),
    ("CCCCCCCCOc1cccc(S(=O)(=O)Nc2ccc(C)cc2C(=O)O)c1", "%", 91.5),
]

Alright, here's another compound for you.
Look up growth of `CC(=O)Nc1cccc(Nc2nc(N[C@H]3CCCc4ccccc43)c3ccccc3n2)c1` and report it. 105

###

# Tested on: EKVX NSCLC
# method.summary: NCI-60 one-dose screen, 48 h (100 = growth as untreated, 0 = no growth, -100 = all killed)
# study.conditions: 10 µM unless noted
About 83,000 compounds went through this panel and 20% of them were active in at least one assay; those are over-represented in the sample as a whole.
recorded.metric: growth (%)
Report the figure in % without appending any unit label.

# compound, growth, %
rows = [
    ("C=C1CC[C@@H]2[C@]3(C)COC(c4cn(-c5ccccc5)nc4-c4cccc([N+](=O)[O-])c4)O[C@@H]3CC[C@@]2(C)[C@@H]1C/C=C1/C(=O)OC[C@H]1O (some centres not stated)", -0.625),
]

Look up growth of CN(C)c1nc(NCCNS(=O)(=O)c2ccc(C3=Nc4c(N)nc(N)nc4NC(c4ccc(F)cc4)C3)cc2)nc(Nc2ccc(F)cc2)n1 (configuration not stated) and report it. 47.5

Look up growth of `CC(=O)Nc1ccc(C(=O)NC(=S)Nc2ccc(S(N)(=O)=O)cc2)cc1` and report it. 90.1

Look up growth of COc1ccc(C2=NN(c3ccccc3)C(c3ccc(OC)c(OCc4ccccc4)c3)C2)cc1OC (configuration not stated) and report it. 92.4

Look up growth of CCN1C(=O)N(CC)C2NNC(Sc3c(C(=O)O)c4ccccc4n(C4CCCC4)c3=O)=NC21 (configuration not stated) and report it. 45.7

###

# System: CAKI-1 renal
# method.summary: NCI-60 one-dose screen, 48 h (100 = growth as untreated, 0 = no growth, -100 = all killed)
# study.conditions: 10 µM unless noted
This is part of a sample that, as a whole, favours compounds with a hit. Of some 83,000 tested, about 20% had one in any assay.
recorded.metric: growth (%)
Report the figure in % without appending any unit label.

Worked examples follow.
# compound, recorded.metric, unit.tag, endpoint.result
measured = [
    ("N/N=C(\\N)c1c(N)nc(=S)[nH]c1-c1ccc(Cl)cc1Cl", "growth", "%", 96.9),
    ("Cn1cc(NC(=O)c2cc(NC(=O)c3ccc(/C=C/c4ccccc4)cc3)cn2C)cc1C(=O)NCCCN1CCOCC1", "growth", "%", 55.6),
    ("C=C1CCC2C3(C)COC(c4ccccc4)OC3CCC2(C)C1CC(NCc1ccccc1)C1=CCOC1=O (centres undefined)", "growth", "%", 58.1),
    ("O=C(CCN1C(=O)/C(=C/c2ccc(F)cc2)SC1=S)N1CCOCC1", "growth", "%", 88.4),
]

Look up growth of `Cn1cc(-c2cc(N)n3nc(-c4cn(C)c5ncc(Br)cc45)cc3n2)c2cc(Br)cnc21` and report it. 56.6

Look up growth of `Cn1cc(-c2cc3nc(-c4cn(C)c5ncccc45)cc(N)n3n2)c2ccccc21` and report it. -23.2

Look up growth of CCCn1cc(-c2nc(Nc3ccc(C(=O)NCCCCNc4cccc5c4C(=O)N(C4CCC(=O)NC4=O)C5=O)cc3)nc3[nH]ccc23)cn1 (centres undefined) and report it. 27.3

Look up growth of `COc1ccc(-c2ccc(SCC(=O)Nc3ccc(S(N)(=O)=O)cc3Br)nn2)cc1` and report it. 63.1

Look up growth of COc1cc2c(c(OC)c1OC)C(=O)CC(c1cccc(NC(=O)c3cc(NC(=O)[C@H](CO)NC(=O)OC(C)(C)C)ccc3Cl)c1)O2 (some centres undefined) and report it. 31.2

###

# Tested on: 786-0 renal
# method.summary: NCI-60 one-dose screen, 48 h
# study.conditions: 10 µM unless noted
Compounds without any hit were thinned out: in the full panel of roughly 83,000, 20% have a hit. Calls of active or inactive are those of the source. Rule for the calls: active = growth percent below 10; inactive = the rest.
Allowed answers: label 1 = active, label 0 = inactive

Solved cases below.
# input.smiles, assigned.category
records = [
    ("NS(=O)(=O)c1ccc(-n2cc(-c3cccc(NC(=O)c4ccc(Cl)c(C(F)(F)F)c4)c3)nn2)cc1", "label 0"),
    ("CN(C)c1ccnc(CNCCSC2(c3ccccc3)c3ccccc3C=Cc3ccccc32)c1", "label 1"),
    ("C=CC(=O)Nc1ccc(C)c(Oc2ccc(Cl)cc2)c1", "label 0"),
    ("N#Cc1c(-c2cccc3ccccc23)cc(-c2cccc(OCC(=O)O)c2)[nH]c1=O", "label 0"),
    ("CSc1ccccc1NC(=O)c1ccc2nnn(/C(C#N)=C/c3ccccn3)c2c1", "label 1"),
    ("CC(C)CSc1nc(NCCc2c[nH]c3ccccc23)c(C#N)c(-c2ccccc2)n1", "label 0"),
    ("CCCCSc1nc(Nc2ccc(S(N)(=O)=O)cc2)c(C#N)c(-c2ccc(Cl)cc2)n1", "label 0"),
    ("CC(=O)Nc1cccc(Nc2nccc(N[C@@H](C)c3ccccc3)n2)c1", "label 0"),
]

Alright, here's another molecule for you.
Hi team, can someone confirm the assay call for `COc1ccc(C(=O)/C=C/c2ccc(Oc3nc(Nc4ccc(F)cc4)nc(N(C)C)n3)c(OC)c2)cc1` ? label 0

###

Recorded measurements of growth, one per entry
# System: HCC-2998 colon
# method.summary: NCI-60 one-dose screen, 48 h (100 = growth as untreated, 0 = no growth, -100 = all killed)
# study.conditions: 10 µM unless noted
Compounds without any hit were thinned out: in the full panel of roughly 83,000, 20% have a hit.
Report the figure in % without appending any unit label.

# compound, growth / %
data = [
    ("CN(C)c1ccnc(CNCCSC2(c3ccc(C(F)(F)F)cc3)c3ccccc3C=Cc3ccccc32)c1", -93.9),
    ("O=C(NNc1nc2cc(C(F)(F)F)ccc2n2cccc12)c1cnccn1", -72.2),
]

Alright, here's another compound for you.
Look up growth of `COc1cc2oc(-c3cccc(NC(=O)[C@H](CC(N)=O)NC(=O)OC(C)(C)C)c3)cc(=O)c2c(OC)c1OC` and report it. 100
